Biological target: T1, human CD19 (on Raji cells, CD19+ homo sapiens Burkitt's lymphoma) (human, UniProt P15391 20-556)
T1 construct: whole, on cells; also called B-lymphocyte antigen CD19; B4
T1 sequence (looked up): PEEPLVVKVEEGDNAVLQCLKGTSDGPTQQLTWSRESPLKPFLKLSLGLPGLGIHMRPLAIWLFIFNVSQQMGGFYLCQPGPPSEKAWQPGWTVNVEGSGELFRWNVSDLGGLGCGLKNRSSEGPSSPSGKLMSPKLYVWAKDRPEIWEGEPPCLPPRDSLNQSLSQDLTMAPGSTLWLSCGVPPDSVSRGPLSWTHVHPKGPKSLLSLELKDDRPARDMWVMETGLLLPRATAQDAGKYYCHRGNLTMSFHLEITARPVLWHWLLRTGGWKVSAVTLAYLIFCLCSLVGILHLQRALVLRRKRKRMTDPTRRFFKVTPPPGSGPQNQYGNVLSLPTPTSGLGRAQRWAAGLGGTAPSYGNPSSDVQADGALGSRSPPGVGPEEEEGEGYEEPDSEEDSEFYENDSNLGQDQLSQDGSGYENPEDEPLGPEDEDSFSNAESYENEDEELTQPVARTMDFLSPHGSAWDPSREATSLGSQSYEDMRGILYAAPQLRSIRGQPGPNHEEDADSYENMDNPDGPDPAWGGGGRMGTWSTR
Assay: flow cytometry titration on Raji cells, anti-His FITC; scFv at log(nM) 3.477121
READOUT NAME: geometric mean (FACS titration)

INSERT INTO measurements (binder, readout_name, reported_result) VALUES
  ('NS-scFv (scFv, leader left out here) scFv: DIQMTQSPSSLSASVGDRVTITCRASQDISKYLNWYQQKPGKAVKLLIYHTSRLHSGVPSRFSGSGSGTDYTLTISSLQPEDIATYFCQQGNTLPYTFGGGTKLEIKGSTSGSGKPGSGEGSTKGQVQLQESGPGLVKPSETLSVTCTVSGVSLPDYGVSWIRQPPGKGLEWLGVIWGSETTYYNSALKSRLTISKDTSKNQVFLKMSSLTAADTAIYYCAKHYYYGGSYAMDYWGQGTLVTVSSHHHHHH', 'geometric mean (FACS titration)', 60.7),
  ('AS-scFv (scFv, leader left out here) scFv: DIQMTQSPSTLSASVGDRVTITCRASQDISKYLNWYQQKPDQAPKLLIKHTSRLHSGVPSRFSGSGSGTDFTFTISSLQPEDIATYYCQQGNTLPYTFGQGTKLEIKGSTSGSGKPGSGEGSTKGQVQLQESGPGLVKPSGTLSLTCAVSGVSLPDYGVSWIRQPPGKGLEWIGVIWGSETTYYNSALKSRVTISRDNSKNTLYLQMNSLRAEDTAVYYCAKHYYYGGSYAMDYWGQGTLVTVSSHHHHHH', 'geometric mean (FACS titration)', 62.7),
  ('JS-scFv (scFv, leader left out here) scFv: DIQMTQSPSSLSASVGDRVTITCRASQDISKYLNWYQQKPDQAPKLLIKHTSRLHSGVPSRFSGSGSGTDYTLTISSLQPEDFATYYCQQGNTLPYTFGQGTKLEIKGSTSGSGKPGSGEGSTKGEVQLVESGGGLVQPGRSLRLSCTASGVSLPDYGVSWIRQPPGKGLEWIGVIWGSETTYYNSALKSRFTISRDNSKNTLYLQMNSLRAEDTAVYYCAKHYYYGGSYAMDYWGQGTLVTVSSHHHHHH', 'geometric mean (FACS titration)', 60.2),
  ('SS-scFv (scFv, leader left out here) scFv: DIQMTQSPSFLSASVGDRVTITCRASQDISKYLNWYQQKPDQAPKLLIKHTSRLHSGVPSRFSGSGSGTDFTFTISSLQPEDIATYYCQQGNTLPYTFGQGTKLEIKGSTSGSGKPGSGEGSTKGEVQLVESGGGLVQPGRSLRLSCTASGVSLPDYGVSWVRQPPGKGLEWIGVIWGSETTYYNSALKSRFTISRDNSKNTLYLQMNSLRAEDTAVYYCAKHYYYGGSYAMDYWGQGTLVTVSSHHHHHH', 'geometric mean (FACS titration)', 62);
